- TARGET OF ASSAY: PAR-1 receptor (Homo sapiens, UniProt P25116)
- Construct: endogenous in cells
- Sequence (P25116 22-425): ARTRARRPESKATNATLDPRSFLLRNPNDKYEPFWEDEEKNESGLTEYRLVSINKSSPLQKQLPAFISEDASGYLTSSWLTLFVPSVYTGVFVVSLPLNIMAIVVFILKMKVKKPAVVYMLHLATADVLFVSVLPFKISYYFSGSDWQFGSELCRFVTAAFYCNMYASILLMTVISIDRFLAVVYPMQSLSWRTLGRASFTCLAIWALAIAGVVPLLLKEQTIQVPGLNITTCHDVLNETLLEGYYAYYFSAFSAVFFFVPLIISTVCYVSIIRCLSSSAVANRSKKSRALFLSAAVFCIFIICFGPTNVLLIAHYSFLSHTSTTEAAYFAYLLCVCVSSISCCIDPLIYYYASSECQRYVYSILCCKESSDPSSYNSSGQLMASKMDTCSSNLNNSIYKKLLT
- EXPERIMENTAL PROTOCOL: PAR-1 FLIPR Assay
- TEST CONDITIONS: HEK 293 cells, calcium signal after PAR-1 selective receptor-activating peptide at EC80
Reported pIC50 is given for each of the following molecules.
Keep in mind that pIC50 stands for -log10 of concentration in molar terms.

Some molecules with recorded pIC50:
smiles_entry=C[C@H]1OC(=O)[C@]2(O)CC(F)(F)[C@@H](C)[C@H](/C=C/c3ccc(-c4cccnc4-c4ccccc4)cn3)[C@H]12 target_of_assay="PAR-1 receptor (Homo sapiens, UniProt P25116)" endpoint_value=8.05
smiles_entry=C[C@H]1OC(=O)[C@]2(O)CC(F)(F)[C@@H](C)[C@H](/C=C/c3ccc(-c4cccnc4C#N)cn3)[C@H]12 target_of_assay="PAR-1 receptor (Homo sapiens, UniProt P25116)" endpoint_value=8.23
smiles_entry=C[C@H]1OC(=O)[C@]2(O)CC(F)(F)[C@@H](C)[C@H](/C=C/c3ccc(-c4cccnc4C4CC4)cn3)[C@H]12 target_of_assay="PAR-1 receptor (Homo sapiens, UniProt P25116)" endpoint_value=7.98
smiles_entry=C[C@H]1OC(=O)[C@]2(O)CC(F)(F)[C@@H](C)[C@H](/C=C/c3ccc(-c4cccnc4F)cn3)[C@H]12 target_of_assay="PAR-1 receptor (Homo sapiens, UniProt P25116)" endpoint_value=7.79
smiles_entry=Cc1ccc(-c2ncccc2-c2ccc(/C=C/[C@@H]3[C@@H]4[C@@H](C)OC(=O)[C@]4(O)CC(F)(F)[C@H]3C)nc2)s1 target_of_assay="PAR-1 receptor (Homo sapiens, UniProt P25116)" endpoint_value=7.82
smiles_entry=C[C@H]1OC(=O)[C@]2(O)CC(F)(F)[C@@H](C)[C@H](/C=C/c3ccc(-c4cccnc4N4CC(F)(F)C4)cn3)[C@H]12 target_of_assay="PAR-1 receptor (Homo sapiens, UniProt P25116)" endpoint_value=7.03
smiles_entry=COc1ncccc1-c1ccc(/C=C/[C@@H]2[C@@H]3[C@@H](C)OC(=O)[C@]3(O)CC(F)(F)[C@H]2C)nc1 target_of_assay="PAR-1 receptor (Homo sapiens, UniProt P25116)" endpoint_value=8.27

*Q* I have this molecule here, `C[C@H]1OC(=O)[C@]2(O)CC(F)(F)[C@@H](C)[C@H](/C=C/c3ccc(-c4cccnc4Cl)cn3)[C@H]12` , and I need its recorded pIC50.
*A* 8.11

====

- TARGET OF ASSAY: hERG channel (Homo sapiens)
- Construct: expressed in transfected cells; host or cells: HEK293, stably transfected; membranes
- Sequence (Q12809 whole entry): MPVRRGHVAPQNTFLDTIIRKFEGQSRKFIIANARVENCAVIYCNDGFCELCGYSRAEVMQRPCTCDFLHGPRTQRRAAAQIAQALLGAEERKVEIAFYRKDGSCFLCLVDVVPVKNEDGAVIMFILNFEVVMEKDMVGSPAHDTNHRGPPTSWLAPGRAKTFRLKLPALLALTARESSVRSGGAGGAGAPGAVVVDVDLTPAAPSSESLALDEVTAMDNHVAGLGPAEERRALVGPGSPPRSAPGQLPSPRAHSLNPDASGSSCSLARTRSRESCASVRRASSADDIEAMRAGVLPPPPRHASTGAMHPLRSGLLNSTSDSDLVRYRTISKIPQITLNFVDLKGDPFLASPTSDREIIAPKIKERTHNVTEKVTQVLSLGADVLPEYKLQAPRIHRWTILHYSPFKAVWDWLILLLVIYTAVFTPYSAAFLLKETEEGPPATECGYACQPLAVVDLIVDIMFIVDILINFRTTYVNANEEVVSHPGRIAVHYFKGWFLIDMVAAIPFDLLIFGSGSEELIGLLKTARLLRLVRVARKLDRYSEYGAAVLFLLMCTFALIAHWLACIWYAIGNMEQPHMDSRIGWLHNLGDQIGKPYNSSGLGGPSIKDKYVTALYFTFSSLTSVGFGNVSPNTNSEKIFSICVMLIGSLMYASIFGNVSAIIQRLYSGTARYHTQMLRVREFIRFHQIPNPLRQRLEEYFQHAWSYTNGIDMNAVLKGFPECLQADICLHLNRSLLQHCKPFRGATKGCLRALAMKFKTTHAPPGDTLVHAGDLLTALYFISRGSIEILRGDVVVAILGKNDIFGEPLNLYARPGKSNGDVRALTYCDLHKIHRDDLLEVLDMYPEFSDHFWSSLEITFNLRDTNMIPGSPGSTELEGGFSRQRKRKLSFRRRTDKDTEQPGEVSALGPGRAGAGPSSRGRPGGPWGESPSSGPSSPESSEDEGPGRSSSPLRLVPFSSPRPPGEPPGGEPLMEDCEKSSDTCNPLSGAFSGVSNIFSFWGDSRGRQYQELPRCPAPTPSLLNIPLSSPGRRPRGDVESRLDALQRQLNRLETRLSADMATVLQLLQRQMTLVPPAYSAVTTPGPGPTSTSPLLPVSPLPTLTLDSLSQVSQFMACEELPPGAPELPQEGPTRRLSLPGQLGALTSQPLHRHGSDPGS
- EXPERIMENTAL PROTOCOL: MK-499 Filter Binding Assay
- TEST CONDITIONS: human, pH 7.4, probe [35S]MK-0499 radioligand; [35S]MK-0499 radioligand competition, membranes of HEK293 cells expressing hERG; read-out: MK499 IC50
VALUE KIND: IC50 at 90 min

# count of solved cases: 2
smiles_entry=COc1ncccc1-c1ccc(/C=C/[C@@H]2[C@@H]3[C@@H](C)OC(=O)[C@]3(O)CC(F)(F)[C@H]2C)nc1 endpoint_value="≥ 60 µM"
smiles_entry=C[C@H]1OC(=O)[C@]2(O)CC(F)(F)[C@@H](C)[C@H](/C=C/c3ccc(-c4cccnc4C#N)cn3)[C@H]12 endpoint_value="≥ 60 µM"

Turning now to a further molecule:
*Q* # input molecule: `C[C@H]1OC(=O)[C@]2(O)CC(F)(F)[C@@H](C)[C@H](/C=C/c3ccc(-c4cccnc4F)cn3)[C@H]12` ; wanted: its IC50 at 90 min
*A* ≥ 60 µM
